- target.or.system: Adenosine receptor A1 (Homo sapiens, UniProt P30542)
- Sequence (P30542 whole entry): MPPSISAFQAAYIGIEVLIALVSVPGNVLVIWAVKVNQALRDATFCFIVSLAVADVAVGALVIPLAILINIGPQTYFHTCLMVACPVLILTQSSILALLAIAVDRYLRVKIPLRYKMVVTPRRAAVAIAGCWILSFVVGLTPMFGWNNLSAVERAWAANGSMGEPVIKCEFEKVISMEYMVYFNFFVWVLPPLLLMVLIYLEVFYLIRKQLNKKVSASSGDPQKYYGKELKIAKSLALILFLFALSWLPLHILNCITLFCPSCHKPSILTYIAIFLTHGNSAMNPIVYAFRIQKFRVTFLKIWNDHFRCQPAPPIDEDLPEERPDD
Below, Ki values reported for Adenosine receptor A1 (Homo sapiens, UniProt P30542) across several publications.
metric.name: Ki (nM)

Some solved entries appear below for comparison.
Nc1nc2ccccc2c2cn(-c3ccccc3)nc12 :: 659
CCN(C(C)=O)c1ccc(OC)c2nc(NC(=O)c3ccc(C(=O)N4CCCC4)cc3)sc12 :: 50
CCn1ncc2c1nc(N)n1nc(-c3ccc(Cl)cc3)nc21 :: 121
CC(C)n1cc2c(C(N)=O)nc(N)nc2n1 :: 8200
CCn1nnc([C@H]2O[C@@H](n3cnc4c(N)nc(Cl)nc43)[C@H](O)[C@@H]2O)n1 :: 400

A: N#Cc1c(N)nc(SCc2cccnc2)c(C#N)c1-c1ccco1
B: Cn1cc2c(nc(NC3CCCCCCC3)n3nc(-c4ccco4)nc23)n1
**Query** Identify the entry with the smaller Ki: A or B . Refer to your chosen item by its label in the answer.
**Result** A
(A: 1.42 nM, B: 484 nM)

P: CC1=C(C2=C(C)C(=O)c3c(cc(O)c(O)c3Cc3ccccc3)C2=O)C(=O)c2cc(O)c(O)c(Cc3ccccc3)c2C1=O
Q: CCNC(=O)[C@H]1O[C@@H](n2cnc3c(N)nc(NCCc4ccc(CCC(=O)N[C@@H](Cc5ccccc5)C(=O)OC)cc4)nc32)[C@H](O)[C@@H]1O
**Query** Field: lower recorded Ki (choose P or Q ) Field: selected label. Fill in the label of the entry you choose.
**Result** P

* * *

Collected pKi for Adenosine receptor A1 (Homo sapiens) across several studies; compounds listed below.
pKi: −log10 of the molar value.
metric.name: pKi

P: CC(C)Cn1c(=O)c2[nH]c(-c3cnn(Cc4ccccc4)c3)nc2n(CC(C)C)c1=O
Q: COC[C@@H]1CCCN1c1cc(NC(C)=O)nc(-c2cccs2)n1
R: CCOC(=O)c1cnc(NCC(C)C)n2nc(-c3ccco3)nc12
S: O=C(Nc1nc(-c2ccccc2)cc(-c2ccc3c(c2)OCO3)n1)C1CCCC1
**Query** Rank by pKi (largest to smallest). Order the labels as requested and list them.
**Result** S, R, Q, P

* * *

A compilation of Ki values for Adenosine receptor A1 (Homo sapiens, UniProt P30542) from the published literature.
- target.or.system: Adenosine receptor A1 (Homo sapiens, UniProt P30542)
- Sequence (P30542 whole entry): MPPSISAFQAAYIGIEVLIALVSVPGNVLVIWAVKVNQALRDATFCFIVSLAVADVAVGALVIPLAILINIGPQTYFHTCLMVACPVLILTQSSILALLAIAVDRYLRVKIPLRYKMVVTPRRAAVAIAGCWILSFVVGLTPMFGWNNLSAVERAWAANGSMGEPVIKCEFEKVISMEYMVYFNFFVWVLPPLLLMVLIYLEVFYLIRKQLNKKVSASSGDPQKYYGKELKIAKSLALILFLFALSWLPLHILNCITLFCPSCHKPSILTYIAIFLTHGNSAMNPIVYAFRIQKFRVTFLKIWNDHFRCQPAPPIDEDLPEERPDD
metric.name: Ki (nM)

Worked examples, 3 compounds total:
N#Cc1c(N)nc(SCc2csc(-c3ccccc3Cl)n2)nc1-c1ccc2c(c1)OCO2 :: 75
N#Cc1c(N)nc(SCCO)c(C#N)c1-c1ccco1 :: 57
Cn1cc2c(nc(NC(=O)Cc3ccccc3)n3nc(-c4ccccc4)nc23)n1 :: 562

1: Nc1ncc(C(=O)NCCc2ccccc2)c2nc(-c3ccco3)nn12
2: C=CCN(CC=C)S(=O)(=O)c1ccc(NC(=O)Nc2ncnc3c2ncn3C2O[C@H](C(=O)NCC)C(O)C2O)cc1 (single isomer, unassigned)
3: CCOC(=O)c1nc(NC(=O)c2ccc(F)cc2)nc2nn(CC(C)(C)C)cc12
4: Cn1cc2c(nc(NC(=O)Nc3ccc[n+]([O-])c3)n3nc(-c4ccco4)nc23)n1
5: CN(C)c1nc(-c2ccccn2)c2sccc2n1
**Query** Rank ascending by Ki. Return value: ordered labels per request.
**Result** 1, 2, 4, 5, 3

1: C=CCN1C(=O)N2C[C@H](C)N=C2c2[nH]c(-c3cc(C)nn3C)nc21
2: CCn1nnc([C@H]2O[C@@H](n3cnc4c(N)nc(N[C@@H](C)Cc5ccc(OC)cc5)nc43)[C@H](O)[C@@H]2O)n1
**Query** Identify the entry with the larger Ki. Options: 1 and 2 Kindly state the label of the option you pick.
**Result** 1

a: O=C(Nc1nc(Cl)c2cn(CCc3ccccc3)nc2n1)c1ccc(F)cc1
b: Cc1cccc(-n2cc3c(n2)c(N)nc2ccccc23)c1
**Query** Smaller Ki value? Options are a and b Your choice should be expressed through its label.
**Result** b

1: COc1ccc(N(C(C)=O)C(F)F)c2sc(NC(=O)c3ccc(F)cc3)nc12
2: CCSc1nc(NC(C)=O)cc(OCc2ccc(Cl)cc2)n1
**Query** Quick check, higher Ki between 1 and 2 ? Kindly state the label of the option you pick.
**Result** 2

P: Nc1nc(OCCc2c[nH]c3ccc(O)cc23)nc2c1ncn2[C@@H]1O[C@H](CO)[C@@H](O)[C@H]1O
Q: Cc1cccc(-c2cc(-c3ccco3)nc(N)c2C#N)c1
**Query** Lowest Ki? choose P or Q Answer = label.
**Result** Q

a: CCCC(=O)Nc1cc(-c2ccccc2F)nc(-c2ccccc2F)n1
b: Cc1ccc(-c2nc(N)c3nn(Cc4ccccc4F)cc3n2)o1
c: COc1ccc(-c2nc(N)c3nc(-c4ccco4)sc3n2)cc1
**Query** Sort by Ki, descending. # format: label list in the order the request specifies
**Result** b, c, a
